target: Estrogen receptor (Homo sapiens);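 also: potency for inhibiting coactivator peptide recruitment to the receptor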
Sequence (P03372 whole entry): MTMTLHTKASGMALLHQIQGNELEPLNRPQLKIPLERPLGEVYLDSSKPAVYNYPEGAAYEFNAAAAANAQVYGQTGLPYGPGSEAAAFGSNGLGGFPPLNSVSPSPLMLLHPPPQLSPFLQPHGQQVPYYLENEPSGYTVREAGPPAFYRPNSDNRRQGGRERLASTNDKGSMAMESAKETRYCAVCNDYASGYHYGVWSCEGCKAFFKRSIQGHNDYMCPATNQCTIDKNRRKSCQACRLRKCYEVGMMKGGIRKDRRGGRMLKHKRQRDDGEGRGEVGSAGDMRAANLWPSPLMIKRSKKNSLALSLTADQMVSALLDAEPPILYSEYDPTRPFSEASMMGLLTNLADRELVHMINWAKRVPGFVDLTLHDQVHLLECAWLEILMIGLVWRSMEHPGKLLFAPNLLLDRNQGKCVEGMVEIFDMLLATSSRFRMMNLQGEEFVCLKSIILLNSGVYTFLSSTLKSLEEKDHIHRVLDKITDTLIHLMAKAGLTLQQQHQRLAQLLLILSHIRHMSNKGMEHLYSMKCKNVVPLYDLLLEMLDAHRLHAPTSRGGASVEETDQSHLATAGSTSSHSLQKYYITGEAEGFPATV
Activity calls are given as the source filed them.
experimental-endpoint: IC50

What value of IC50 has been recorded for this entry: CCc1nnc2n1N=C(c1ccc(-c3cc(Cl)ccc3Cl)o1)CS2 44 µM (not active)

What value of IC50 has been recorded for this entry: COc1ccc(Cn2c(N)c(C(=O)NCc3ccco3)c3nc4ccccc4nc32)cc1 17.3 µM (active)

What value of IC50 has been recorded for this entry: N#Cc1c(SCC(=O)Nc2nccs2)nc2c(c1-c1ccco1)CCCC2 > 50 µM (not active)

What value of IC50 has been recorded for this entry: CC1CCC2(CC1)NC(=O)N(CC(=O)c1ccc[nH]1)C2=O (stereo not drawn) > 50 µM (not active)

What value of IC50 has been recorded for this entry: Cc1nnc(NC(=O)Cc2cccs2)s1 19 µM (active)

What value of IC50 has been recorded for this entry: Cc1cc(-c2nn3c(-c4ccccc4)nnc3s2)c2ccccc2n1 21.6 µM (active)

What value of IC50 has been recorded for this entry: CCCCn1c(NC(=O)CC)c(C#N)c2nc3ccccc3nc21 23.4 µM (active)

What value of IC50 has been recorded for this entry: O=C(CSc1nnc(-c2ccco2)[nH]1)Nc1sc2c(c1C(=O)Nc1ccccc1)CCCC2 40 µM (not active)

====

assay: HepG2 cell cytotoxicity, dose response, cytotoxicity control for Shn3 inhibitor project, CellTiter-Glo, cherry-picked (AID 624134); format: functional, cell-based
Calls of active or inactive are those of the source.
Permitted responses: active, inactive

Please state the recorded outcome for this compound: Cc1oc(-c2ccc(Cl)cc2)nc1C[S+]([O-])CC(=O)NCCCN1CCN(Cc2ccccc2)CC1 (centres undefined) active

Please state the recorded outcome for this compound: CCCCNc1c(-c2ccc(OC)c(SC3CCCCC3)c2)nc2ccc(C)cn12 active

Please state the recorded outcome for this compound: O=C(c1ccccc1)C(CN1CCCC1)c1ccccc1 (centres undefined) active

Please state the recorded outcome for this compound: O=C(NCCc1ccccc1)c1ccc2c(c1)OCCCO2 inactive

====

molecular target: Short transient receptor potential channel 4 (Mus musculus); experiment: mouse TRPC4 channel inhibitors, dose response, cell-based, HEK293 TRPC4/mu-opioid, Fluo-4 calcium (AID 434942); type: functional;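 also: potency of inhibitors blocking the TRPC4 calcium response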
Sequence (Q9QUQ5 whole entry): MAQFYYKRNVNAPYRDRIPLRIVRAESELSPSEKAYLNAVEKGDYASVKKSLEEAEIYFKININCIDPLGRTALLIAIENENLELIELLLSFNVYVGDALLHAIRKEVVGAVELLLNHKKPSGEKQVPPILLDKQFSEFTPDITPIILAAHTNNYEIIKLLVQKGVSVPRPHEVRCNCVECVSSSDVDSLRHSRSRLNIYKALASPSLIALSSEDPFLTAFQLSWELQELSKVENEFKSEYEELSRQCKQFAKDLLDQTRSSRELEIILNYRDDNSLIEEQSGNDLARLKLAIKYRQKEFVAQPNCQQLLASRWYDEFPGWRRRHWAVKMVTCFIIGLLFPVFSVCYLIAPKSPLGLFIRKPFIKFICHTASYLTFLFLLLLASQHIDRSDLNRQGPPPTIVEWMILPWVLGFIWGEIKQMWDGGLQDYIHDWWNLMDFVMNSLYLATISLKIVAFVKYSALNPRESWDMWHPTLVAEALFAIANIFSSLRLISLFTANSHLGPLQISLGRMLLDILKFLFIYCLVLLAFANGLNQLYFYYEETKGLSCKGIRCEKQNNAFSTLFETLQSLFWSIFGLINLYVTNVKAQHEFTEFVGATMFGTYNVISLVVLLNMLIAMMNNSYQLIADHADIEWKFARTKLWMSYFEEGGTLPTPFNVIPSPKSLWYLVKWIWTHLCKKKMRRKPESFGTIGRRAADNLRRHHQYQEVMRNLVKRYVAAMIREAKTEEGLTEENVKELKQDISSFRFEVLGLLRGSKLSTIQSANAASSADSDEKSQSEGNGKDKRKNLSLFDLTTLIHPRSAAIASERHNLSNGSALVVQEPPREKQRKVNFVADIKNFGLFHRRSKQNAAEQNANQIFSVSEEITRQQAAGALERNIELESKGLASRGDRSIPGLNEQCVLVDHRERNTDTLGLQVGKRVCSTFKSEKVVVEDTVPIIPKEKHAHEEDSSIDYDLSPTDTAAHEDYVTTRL
Activity calls are given as the source filed them.
experimental-endpoint: EC50

What value of EC50 has been recorded for this entry: CCOC(=O)c1c(N)sc(C(O)(C(F)(F)F)C(F)(F)F)c1-c1ccccc1 7500 nM (active)

What value of EC50 has been recorded for this entry: CCCn1c(NC(=O)c2cccc(S(=O)(=O)N3CCCC3)c2)nc2ccccc21 749 nM (active)

What value of EC50 has been recorded for this entry: CC(NC(=O)c1ccco1)C(c1cccs1)N1CCN(c2ccccc2)CC1 (stereo unspecified) 376 nM (active)

What value of EC50 has been recorded for this entry: Cc1ccc(COn2c(-c3ccc(Cl)cc3Cl)nc3ncccc32)cc1 473 nM (active)

What value of EC50 has been recorded for this entry: Cn1c(-c2ccc(F)cc2)cnc1NCc1ccc(F)cc1F 2660 nM (active)

What value of EC50 has been recorded for this entry: Cc1ccc(C(C(=O)NC(C)(C)C)N(C(=O)CCC(=O)Nc2ccccn2)c2ccccc2F)cc1 (stereo unspecified) 2990 nM (active)

====

What AC50 was measured for each of the following?

Requested read-out AC50, target or system Cytochrome P450 2C9 (Homo sapiens), entry CC(=O)Nc1ccc(NC(=O)Cn2c(-c3ccc(F)cc3)cnc2SCC(=O)Nc2c(C)cccc2C)cc1 17.8 µM (inconclusive)

Requested read-out AC50, target or system Cytochrome P450 2C9 (Homo sapiens), entry Oc1c([C@H](Nc2ccccn2)c2ccccc2)ccc2cccnc12 6.31 µM (inconclusive)

Requested read-out AC50, target or system Cytochrome P450 2C9 (Homo sapiens), entry C[C@@H](/C=C\c1cccc(Oc2ccc(F)cc2)c1)N(O)C(N)=O 31.6 µM (inconclusive)

Requested read-out AC50, target or system Cytochrome P450 2C9 (Homo sapiens), entry Nc1ccc(S(=O)(=O)Nc2cnc3ccccc3n2)cc1 [SULFAQUINOXALINE] 3.98 µM (inconclusive)

Requested read-out AC50, target or system Cytochrome P450 2C9 (Homo sapiens), entry Cc1cc(N)n(-c2ccc3ccccc3c2)n1 35.5 µM (inconclusive)

Requested read-out AC50, target or system Cytochrome P450 2C9 (Homo sapiens), entry O=c1c(-c2ccccc2)nc2cnc(N3CCOCC3)nc2n1Cc1cccs1 20 µM (inconclusive)
